Assay: Phase 1 single dose escalation pharmacokinetics
Settings: male, human, plasma, po, 15 mg
Protocol: Methods: The trial was a Phase 1, single center, double-blind, placebo-controlled, sequential group, acute dose escalation study of the safety and pharmacokinetics of seven (7) CX157 dose levels in healthy male volunteers. […] Safety and tolerability was assessed for each dose group by the Principal Investigator before advancing to the next scheduled dose group. […]
OBSERVED_PROPERTY: CL/F

*Q* Indicate the recorded CL/F value for this molecule: O=S1(=O)c2ccc(F)cc2Oc2cc(OCC(F)(F)F)ccc21 [CX157]
*A* 30.2 mL/min/kg

----------
Assay: Phase I modified release tablets BID pharmacokinetics
Assay type: in vivo, human
Conditions: human, plasma, oral, 125 mg, MR tablets 125 mg BID, Day 7, mean; read-out: AUCSS
OBSERVED_PROPERTY: AUC (ng·h/mL)
Reply numerically in ng·h/mL, unit not repeated.

*Q* Indicate the recorded AUC value for this molecule: O=S1(=O)c2ccc(F)cc2Oc2cc(OCC(F)(F)F)ccc21 [CX157]
*A* 1280

----------
Assay: Plasma and brain CX157 concentrations after oral dosing in rats
Settings: male, Sprague-Dawley, rat, brain, po, 10 mg/kg
OBSERVED_PROPERTY: concentration at 4 h
Write the numeric value and follow it with the unit.

*Q* Indicate the recorded concentration at 4 h value for this compound: `O=S1(=O)c2ccc(F)cc2Oc2cc(OCC(F)(F)F)ccc21`
*A* 513 ng/mL

----------
Assay: Phase I 14-day twice-daily pharmacokinetics
Conditions: human, plasma, oral, 40 mg, mean AUC0-12h, 40 mg twice daily, Day 14
OBSERVED_PROPERTY: AUC(0-t) (ng·h/mL)
Reply numerically in ng·h/mL, unit not repeated.

*Q* Indicate the recorded AUC(0-t) value for this molecule: `O=S1(=O)c2ccc(F)cc2Oc2cc(OCC(F)(F)F)ccc21`
*A* 355

----------
Experiment: Plasma and brain CX157 concentrations after oral dosing in rats
Conditions: male, Sprague-Dawley, rat, plasma, po, 10 mg/kg
OBSERVED_PROPERTY: concentration at 2 h
Write the numeric value and follow it with the unit.

*Q* Indicate the recorded concentration at 2 h value for this compound: `O=S1(=O)c2ccc(F)cc2Oc2cc(OCC(F)(F)F)ccc21`
*A* 158 ng/mL

----------
Assay: Phase 1 single dose escalation pharmacokinetics
Details: male, human, plasma, po, 80 mg, AUC0-24, healthy males, single oral 80 mg, mean
OBSERVED_PROPERTY: AUC(0-t) (ng·h/mL)
Reply numerically in ng·h/mL, unit not repeated.

*Q* Indicate the recorded AUC(0-t) value for this molecule: O=S1(=O)c2ccc(F)cc2Oc2cc(OCC(F)(F)F)ccc21 [CX157]
*A* 647

----------
Assay: Plasma and brain CX157 concentrations after oral dosing in rats
Conditions: male, Sprague-Dawley, rat, plasma, po, 1 mg/kg
OBSERVED_PROPERTY: concentration at 0 h (ng/mL)
Reply numerically in ng/mL, unit not repeated.

*Q* Indicate the recorded concentration at 0 h value for this compound: `O=S1(=O)c2ccc(F)cc2Oc2cc(OCC(F)(F)F)ccc21`
*A* 0

----------
Assay: Plasma and brain CX157 concentrations after oral dosing in rats
Conditions: male, Sprague-Dawley, rat, plasma, po, 10 mg/kg
OBSERVED_PROPERTY: concentration at 8 h (ng/mL)
Reply numerically in ng/mL, unit not repeated.

*Q* Indicate the recorded concentration at 8 h value for this compound: `O=S1(=O)c2ccc(F)cc2Oc2cc(OCC(F)(F)F)ccc21`
*A* 257
